Test system: HL-60 human leukemia cell line
Test: Cytotoxicity in HL-60 cells, dark and irradiated (Example 1)
Format: cell-based
Details: HL-60, light condition not given; read-out: IC50
measure: pIC50
Numbers only, as −log10 of the molar value.

-- ask Need pIC50, item N.N.[Cl][Pt][Cl] [Cisplatin, reference compound]
-- reply 5.51

----------
Experiment: Light and dark cytotoxicity of exemplary compounds (Table 6)
Assay type: cell-based
Conditions: cell line not stated; read-out: Dark IC50
From the text: This Example describes additional specific embodiments the presently-disclosed subject matter. […] The methods for making and characterizing the compounds are based on the methodologies described in the previous examples.
Would you kindly list pIC50 for each of these molecules?
Give bare numbers, as −log10 of the molar value.

Consider the following illustrative entries.
querySmiles	pIC50
Cc1ccc2c3nccnc3c3ccc(C)nc3c2n1.F[P-](F)(F)(F)(F)F.F[P-](F)(F)(F)(F)F.[Ru+2].c1ccc(-c2ccccn2)nc1.c1ccc(-c2ccccn2)nc1	3.60
Cc1ccc2ccc3ccc(C)nc3c2n1.Cc1ccc2ccc3ccc(C)nc3c2n1.[Ru+2].c1ccc(-c2ccccn2)nc1	3.82

Let us move to another entry and its pIC50.
-- ask Need pIC50, item Cc1cccc(-c2cccc(C)n2)n1.F[P-](F)(F)(F)(F)F.F[P-](F)(F)(F)(F)F.[Ru+2].c1ccc(-c2ccccn2)nc1.c1ccc(-c2ccccn2)nc1
-- reply 3.52

----------
Test: Light and dark cytotoxicity of exemplary compounds (Table 6)
Assay type: cell-based
Details: cell line not stated; read-out: Dark IC50
Would you kindly list pIC50 for each of these compounds?
Numbers only, as −log10 of the molar value.

Consider the following illustrative entries.
compound	measure	readoutValue
Cc1ccc2ccc3ccc(C)nc3c2n1.Cc1ccc2ccc3ccc(C)nc3c2n1.[Ru+2].c1cnc2c(c1)ccc1cccnc12	pIC50	4.46
Cc1ccc2ccc3ccc(C)nc3c2n1.Cc1ccc2ccc3ccc(C)nc3c2n1.[Ru+2].c1cnc2c(c1)c1nccnc1c1cccnc12	pIC50	3.60
Cc1ccc2ccc3ccc(C)nc3c2n1.Cc1ccc2ccc3ccc(C)nc3c2n1.[Ru+2].c1ccc2nc3c4cccnc4c4ncccc4c3nc2c1	pIC50	3.82
N.N.[Cl][Pt][Cl] [Cisplatin, reference compound]	pIC50	5.51
Cc1cc(-c2ccccc2)c2ccc3c(-c4ccccc4)cc(C)nc3c2n1.[Ru+2].c1ccc(-c2ccccn2)nc1.c1ccc(-c2ccccn2)nc1	pIC50	4.57

Provide the reported pIC50 of each entry below, same order.
1. Cc1ccc2ccc3ccc(C)nc3c2n1.[Ru+2].c1ccc(-c2ccccn2)nc1.c1ccc(-c2ccccn2)nc1
2. Cc1ccc2ccc3ccc(C)nc3c2n1.Cc1ccc2ccc3ccc(C)nc3c2n1.[Ru+2].c1ccc(-c2ccnc3c2ccc2c(-c4ccccc4)ccnc23)cc1

-- reply
1. 5.10
2. 5.35

----------
Would you kindly list Phototoxicity Index, PI A549 for each of these molecules?
System: A549 lung cancer cells
Test: Cell survival assay, A549 monolayer
Type: cell-based
Conditions: ratio of dark and light IC50
Give bare numbers.

Consider the following illustrative entries.
molecule	readoutValue
Cl.NCC(=O)CCC(=O)O [ALA, 5-aminolevulinic acid hydrochloride, reference compound]	4.2
Cc1ccc2c3nccnc3c3ccc(C)nc3c2n1.F[P-](F)(F)(F)(F)F.F[P-](F)(F)(F)(F)F.[Ru+2].c1ccc(-c2ccccn2)nc1.c1ccc(-c2ccccn2)nc1	208
Cc1cccc(-c2cccc(C)n2)n1.F[P-](F)(F)(F)(F)F.F[P-](F)(F)(F)(F)F.[Ru+2].c1ccc(-c2ccccn2)nc1.c1ccc(-c2ccccn2)nc1	136

Let us move to another entry and its Phototoxicity Index, PI A549.
-- ask Need Phototoxicity Index, PI A549, item [Ru+2].c1ccc(-c2ccccn2)nc1.c1ccc(-c2ccccn2)nc1.c1cnc2c(c1)ccc1cccnc12
-- reply 6.3

meta.source: patent US9290528B1
